Field: pKd. Provide a value for each of the binders that follow.
biological target: T1, AAV5 (adeno-associated virus 5); assay: SPR, AAV amine-coupled to CM5 chip;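 note: nanobodies flowed as analyte at seven concentrations spanning 1–100 nM over immobilized AAV (500–800 RU), kinetic constants derived by fitting the binding curves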
T1 construct: also called adeno-associated virus serotype 5
Give bare numbers, as −log10 of the molar value.

Examples from the recorded data:
Incoming: Given the binder A4-067 (VHH) VHH: VQLQESGGGLVQTGGSLRLSCAASGRAFSLNTMGWYRQAPGKWRELVATVTRGGSTNYAGSVKGRFTISRDNTKNTVYLQMNNLRPEDTAVYYCHVDEVRESSWTTSNLWGQGTQVTVSS , what is its reported pKd?
Outgoing: 8.15

Incoming: Given the binder A4-093 (VHH) VHH: VQLQESGGGLVQTGGSLRLSCAASGSIFIINTMGWYRQRAGKQRELVATVTRGGSTNYADSVKGRFTISRDNAKNTVYLQMNTLRPEDTAVYYCHVDELRQSSWTTSNLWGQGTQVTVSS , what is its reported pKd?
Outgoing: 8.09

# context switch: different binder, same pKd
Incoming: Given the binder A4-059 (VHH) VHH: VQLQESGGGAVQPGGSLRLSCAASGSHFSLNTMGWYRRAPGKQRELVATVTRGGSTNYADSVKGRFTISRDNAKNTIYLQMNSLRPEDTAVYYCHVDEVRQSTWTTSNLWGQGTQVTVSS , what is its reported pKd?
Outgoing: 7.78
